ENDPOINT: melting point (°C)

Past entries and their recorded results:
smiles_input=O=C(Nc1cccc(Cl)c1Cl)Nc1c(Cl)cc(Cl)c2ccc(O)cc12 endpoint="melting point" measured_result=300
smiles_input=CC(=O)Oc1ccc2c(Cl)cc(Cl)c(NC(=O)Nc3cccc(-c4ccccc4Cl)c3)c2c1 endpoint="melting point" measured_result=180
smiles_input=Cc1cc(Cl)c(NC(=O)Nc2ccc(Cl)c(C(F)(F)F)c2)c2cc(O)ccc12 endpoint="melting point" measured_result=254
smiles_input=CC(=O)Oc1ccc2c(Cl)cc(Cl)c(NC(=O)Nc3cccc(-c4ccc(C)c(Cl)c4)c3)c2c1 endpoint="melting point" measured_result=260
smiles_input=O=C(Nc1ccc2ccccc2c1)Nc1cccc2ccc(O)c(F)c12 endpoint="melting point" measured_result=189

A: CN(C(=O)NCc1ccc(Br)cc1)c1cccc2ccc(O)cc12
B: CC(=O)Oc1ccc2c(Cl)cc(Cl)c(NC(=O)Nc3cccc(-c4ccc(Cl)c(F)c4)c3)c2c1
Exam item: In terms of reported melting point, does A or B have the smaller number? Give the chosen item's label as your response.
Marked response: A
(A: 194 °C, B: 287 °C)

====

In this section we review reported melting point values for a set of molecules.

smiles_input=Nc1ccc2cccc(NC(=O)Nc3ccc(Cl)c(C(F)(F)F)c3)c2c1 measured_result="232 to 234 °C"
smiles_input=Cc1ccc(-c2cccc(NC(=O)Nc3c(Cl)cc(Cl)c4ccc(O)cc34)c2)cc1Cl measured_result="234 °C (dec.)"

Exam item: What does the record list as melting point for O=C(Nc1ccc(C(F)(F)F)cc1)Nc1c(Cl)cc(Cl)c2ccc([O-])cc12.[K+] ?
Marked response: 179 °C (dec.)

Exam item: Do the same for O=C(NCc1ccc(Br)cc1)Nc1c(Cl)ccc2ccc(O)cc12 please
Marked response: 226 to 229 °C

Exam item: Do the same for O=C(NCc1cccc(F)c1)Nc1c(Cl)cc(Cl)c2ccc(O)cc12 please
Marked response: 225 to 228 °C

Exam item: Do the same for CC(=O)c1ccc(-c2cccc(NC(=O)Nc3c(Cl)cc(Cl)c4ccc(O)cc34)c2)cc1 please
Marked response: 253 °C

Exam item: Do the same for Cc1ccc(NC(=O)Nc2c(Cl)cc(Cl)c3ccc(O)cc23)cc1C please
Marked response: 239 °C (dec.)

Exam item: Do the same for O=C(Nc1cccc(Cl)c1)Nc1c(Br)cc(Br)c2ccc(O)cc12 please
Marked response: 242 to 243 °C

Exam item: Do the same for O=C(Nc1ccc2c(c1)C(=O)OC2)Nc1c(Cl)cc(Cl)c2ccc(O)cc12 please
Marked response: 290 to 291 °C (dec.)

Exam item: Do the same for O=C(Nc1cccc(-c2ccc(Cl)c(F)c2)c1)Nc1c(Cl)cc(Cl)c2ccc(O)cc12 please
Marked response: 241 °C (dec.)

====

In this section we review reported melting point values for a set of molecules.

Exam item: What does the record list as melting point for O=C(Nc1cccc(C(F)(F)F)c1)Nc1c(Br)cc(Br)c2ccc(O)cc12 ?
Marked response: 233 to 236 °C

Exam item: Do the same for CC1COC(c2cccc(NC(=O)Nc3c(Cl)ccc4ccc(O)cc34)c2)=N1 (stereo not shown) please
Marked response: 162 °C (dec.)

Exam item: Do the same for O=C(Nc1ccc(Cl)cc1)Nc1c(Cl)cc(Cl)c2ccc(O)cc12 please
Marked response: 253 to 255 °C

Exam item: Do the same for CC(C)c1ccc(NC(=O)Nc2cccc3cc(O)ccc23)cc1 please
Marked response: 207.5 °C

====

In this section we review reported melting point values for a set of molecules.

molecule=Cc1cc(NC(=O)Nc2c(Cl)cc(Cl)c3ccc([O-])cc23)ccc1Cl.[K+] measured_result="190 °C"
molecule=O=C(Nc1cccc(Cl)c1)Nc1cccc2ccc(OC(=O)c3ccccc3)cc12 measured_result="214 to 215 °C"
molecule=COc1cccc(-c2cccc(NC(=O)Nc3c(Cl)cc(Cl)c4ccc([O-])cc34)c2)c1.[K+] measured_result="206 °C (dec.)"
molecule=CC(=O)Oc1ccc2c(Cl)cc(Cl)c(NC(=O)Nc3ccc(F)c(F)c3)c2c1 measured_result="226 °C (dec.)"
molecule=CNc1ccc2cccc(NC(=O)Nc3ccc(Cl)c(C(F)(F)F)c3)c2c1 measured_result="218 to 219 °C"
molecule=O=C(Nc1ccc(Cl)c(C(F)(F)F)c1)Nc1cccc2ccc(NCc3ccccc3)cc12 measured_result="193 to 194 °C"

Exam item: What does the record list as melting point for O=C(Nc1c(Cl)cc(Cl)c2ccc(O)cc12)NC1CCCc2ccccc21 (stereo not drawn) ?
Marked response: 238 °C (dec.)

Exam item: Do the same for Cc1ccc(NC(=O)Nc2c(Cl)cc(Cl)c3ccc(O)cc23)cc1F please
Marked response: 261 to 264 °C (dec.)

Exam item: Do the same for O=C(Nc1ccc(Cl)c(C(F)(F)F)c1)Nc1c(Cl)ccc2ccc(O)cc12 please
Marked response: 260 °C (dec.)

====

In this section we review reported melting point values for a set of molecules.

Past entries and their recorded results:
smiles_input=O=C(Nc1cccc(-c2ccc(Cl)c(F)c2)c1)Nc1c(Cl)cc(Cl)c2ccc([O-])cc12.[K+] endpoint="melting point" measured_result="174 °C (dec.)"
smiles_input=COc1ccc(NC(=O)Nc2c(Cl)cc(Cl)c3ccc(O)cc23)cc1F endpoint="melting point" measured_result="235 to 238 °C (dec.)"
smiles_input=O=C(Nc1ccc(Cl)c(C(F)(F)F)c1)Nc1c(Cl)cc(CO)c2ccc(O)cc12 endpoint="melting point" measured_result="210 °C"
smiles_input=O=C(Nc1ccc(Cl)c(C(F)(F)F)c1)Nc1c(Br)cc(Br)c2ccc(O)cc12 endpoint="melting point" measured_result="242 to 243 °C"
smiles_input=C=CCOc1ccc2cccc(NC(=O)Nc3ccc(Cl)c(C(F)(F)F)c3)c2c1 endpoint="melting point" measured_result="183 to 184 °C"
smiles_input=O=C(Nc1ccc(Oc2ccc(Cl)cc2)cc1)Nc1c(Cl)cc(Cl)c2ccc(O)cc12 endpoint="melting point" measured_result="230 °C"

Exam item: What does the record list as melting point for O=C(Nc1ccc(Cl)c(C(F)(F)F)c1)Nc1c(Cl)cc(Cl)c2ccc(O)cc12 ?
Marked response: 255 °C (dec.)

Exam item: Do the same for O=C(Nc1ccc2c(c1)CCCC2=O)Nc1c(Cl)cc(Cl)c2ccc(O)cc12 please
Marked response: 230 °C (dec.)

====

In this section we review reported melting point values for a set of compounds.

smiles_input=O=C(Cc1cccc2ccc(O)cc12)Nc1ccc(Cl)c(C(F)(F)F)c1 measured_result="162 °C"
smiles_input=CS(=O)(=O)Nc1ccc2cccc(NC(=O)Nc3ccc(Cl)c(C(F)(F)F)c3)c2c1 measured_result="225 to 226 °C"
smiles_input=CC(C)(C)c1cc(NC(=O)Nc2c(Br)cc(Br)c3ccc(O)cc23)no1 measured_result="214.5 °C"

Exam item: What does the record list as melting point for CC(=O)Oc1ccc2c(Cl)cc(Cl)c(NC(=O)Nc3ccc(N4CCOCC4)c(Cl)c3)c2c1 ?
Marked response: 206 °C

Exam item: Do the same for Cc1cc(NC(=O)Nc2c(Cl)cc(Cl)c3ccc(O)cc23)ccc1Cl please
Marked response: 240 °C (dec.)

Exam item: Do the same for COc1cccc(NC(=O)Nc2c(Br)cc(Br)c3ccc(O)cc23)c1 please
Marked response: 213 to 216 °C

Exam item: Do the same for CCN(CC)c1ccc(NC(=O)Nc2c(Cl)ccc3ccc(O)cc23)cc1 please
Marked response: 199.8 to 200.5 °C

Exam item: Do the same for O=C(Nc1cccc2c1C(=O)c1ccccc1-2)Nc1c(Cl)cc(Cl)c2ccc(O)cc12 please
Marked response: > 250 °C

====

In this section we review reported melting point values for a set of molecules.

smiles_input=O=C(Nc1ccc(Cl)c(C(F)(F)F)c1)Nc1c(Cl)cc(Cl)c2ccc([O-])cc12.[K+] measured_result="150 °C (dec.)"
smiles_input=O=C(Nc1ccc(F)cc1Cl)Nc1c(Cl)cc(Cl)c2ccc(O)cc12 measured_result="298 °C (dec.)"
smiles_input=CNc1ccc2ccc(Cl)c(NC(=O)Nc3ccc(Cl)c(C(F)(F)F)c3)c2c1 measured_result="258 to 259 °C"
smiles_input=O=C(Nc1cccc(F)c1)Nc1c(Cl)cc(Cl)c2ccc(O)cc12 measured_result="> 300 °C"
smiles_input=CC(=O)Oc1ccc2c(Cl)cc(Cl)c(NC(=O)Nc3ccc4c(c3)C(=O)c3ccccc3-4)c2c1 measured_result="213 °C (dec.)"

Field: next molecule
Exam item: What does the record list as melting point for Cc1ccc(NC(=O)Nc2ccc(Cl)c(C(F)(F)F)c2)c2cc(O)ccc12 ?
Marked response: 237 to 238 °C

====

In this section we review reported melting point values for a set of molecules.

Past entries and their recorded results:
smiles_input=O=C(Nc1ccc(F)c(F)c1)Nc1c(Cl)cc(Cl)c2ccc(O)cc12 endpoint="melting point" measured_result="244 °C (dec.)"
smiles_input=O=C(Nc1ccc(C(F)(F)F)cc1)Nc1c(Cl)cc(Cl)c2ccc(O)cc12 endpoint="melting point" measured_result="268 to 271 °C"
smiles_input=O=C(Nc1cc(C(F)(F)F)ccc1Cl)Nc1c(Cl)cc(Cl)c2ccc(O)cc12 endpoint="melting point" measured_result="> 300 °C"
smiles_input=O=C(Nc1ccc(Cl)c(C(F)(F)F)c1)Nc1cccc2ccc(OC(=O)c3ccccc3)cc12 endpoint="melting point" measured_result="220 to 222 °C"
smiles_input=CC(=O)Nc1ccc2cccc(NC(=O)Nc3ccc(Cl)c(C(F)(F)F)c3)c2c1 endpoint="melting point" measured_result="241 to 242 °C"

Exam item: What does the record list as melting point for COc1cccc(-c2cccc(NC(=O)Nc3c(Cl)cc(Cl)c4ccc(O)cc34)c2)c1 ?
Marked response: 246 °C (dec.)

Exam item: Do the same for O=C(Nc1ccc2c(c1)CCC2)Nc1c(Cl)cc(Cl)c2ccc(O)cc12 please
Marked response: > 300 °C
